Target: UniProt:P49841
Assay: GSK3b TR-FRET kinase assay
Assay type: biochemical
Conditions: 1 nM GSK3b, 2 μM ATP, 30 minute preincubation, Table 16; read-out: GSK3-B TR-FRET BIOCHEMICAL (TR-FRET)
Protocol: TR-FRET Assay: The assay was performed in a white, 384 well, low volume, flat bottom plate (Grenier). After a 30 minute preincubation in assay buffer with the indicated concentration of compound, the kinase activity was initiated by the addition of the substrates. […] After 60 min at room temperature the plate was read on Envision plate reader using Ex: 340 nm, Em: 615 nm and […]. The normalized 665/615 Signal ratio versus log compound concentration was analyzed by XLFIT to yield IC50 values.
pIC50: −log10 of the molar value.
METRIC: pIC50

>>> value_observed("CC1(C)CC(=O)C2=C(C1)Nc1n[nH]cc1C21CCCC1")
"≥ 7.00"

pIC50 reported for this molecule `CC1(C)CC(=O)C2=C(C1)Nc1n[nH]cc1[C@@]21CO[C@@H](C2CC2)C1` : 6.00 to 7.00

pIC50 reported for this molecule `Cn1cc(S(=O)(=O)N2CC[C@@]3(C2)C2=C(CC(C)(C)CC2=O)Nc2n[nH]cc23)cn1` : ≥ 7.00

pIC50 reported for this molecule `CC1(C)CC(=O)C2=C(Nc3n[nH]cc3C23CCOCC3)[C@@H]1F` : 5.30 to 6.00

pIC50 reported for this molecule `CC1(C)CC(=O)C2=C(C1)Nc1n[nH]cc1C21CCN(S(=O)(=O)c2cnc3ccccc3c2)CC1` : ≥ 7.00

pIC50 reported for this molecule CCC1(c2cccc(-c3cnn4c3CCCC4)c2)C2=C(CC(C)(C)CC2=O)Nc2n[nH]cc21 (stereo not drawn) [Compound 945544] : < 5.30

pIC50 reported for this molecule `CC1(C)CC(=O)C2=C(C1)Nc1n[nH]cc1C21CCN(S(=O)(=O)c2ccccc2F)CC1` : ≥ 7.00

pIC50 reported for this molecule `CC1(C)CC(=O)C2=C(C1)Nc1n[nH]cc1C21CCN(S(=O)(=O)c2cnn3ccccc23)CC1` : ≥ 7.00

pIC50 reported for this molecule CCC1(c2cccc(C(C)c3ncccn3)c2)C2=C(CC(C)(C)CC2=O)Nc2n[nH]cc21 (stereo not drawn) [Compound 948057] : 5.30 to 6.00

pIC50 reported for this molecule CCC1(c2cccc(-c3cn(C)nc3C)c2)C2=C(Nc3n[nH]cc31)C(F)C(C)(C)CC2=O (single isomer, unassigned) [Compound 947651] : ≥ 7.00

====

Biological target: GSK3b (GST-full length GSK3b) (Homo sapiens (Human))
Sequence (P49841 whole entry): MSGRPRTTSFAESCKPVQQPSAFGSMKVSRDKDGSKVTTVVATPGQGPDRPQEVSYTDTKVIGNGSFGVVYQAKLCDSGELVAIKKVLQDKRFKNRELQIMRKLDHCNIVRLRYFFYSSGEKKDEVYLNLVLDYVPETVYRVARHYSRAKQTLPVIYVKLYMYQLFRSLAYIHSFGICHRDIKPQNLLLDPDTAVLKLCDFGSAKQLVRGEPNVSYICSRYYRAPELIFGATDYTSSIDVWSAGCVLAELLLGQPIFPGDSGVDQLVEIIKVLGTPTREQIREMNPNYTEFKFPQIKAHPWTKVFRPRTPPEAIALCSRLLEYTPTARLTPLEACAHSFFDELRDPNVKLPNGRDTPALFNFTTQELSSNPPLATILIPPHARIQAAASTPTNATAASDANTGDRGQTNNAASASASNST
Assay: GSK3b TR-FRET kinase assay
Type: biochemical
Conditions: 1 nM GSK3b, 2 μM ATP, 30 minute preincubation, Table 16; read-out: GSK3-B TR-FRET BIOCHEMICAL (TR-FRET); IC50
Protocol: TR-FRET Assay: The assay was performed in a white, 384 well, low volume, flat bottom plate (Grenier). After a 30 minute preincubation in assay buffer with the indicated concentration of compound, the kinase activity was initiated by the addition of the substrates. […] After 60 min at room temperature the plate was read on Envision plate reader using Ex: 340 nm, Em: 615 nm and […]. The normalized 665/615 Signal ratio versus log compound concentration was analyzed by XLFIT to yield IC50 values.
METRIC: IC50

# example entries with known answers
>>> value_observed("CC[C@]1(c2cccc(-c3cnn(C4CCCCC4)c3)c2)C2=C(CC(C)(C)NC2=O)Nc2n[nH]cc21")
"1 to 5 µM"
>>> value_observed("CC1(C)CC(=O)C2=C(C1)Nc1n[nH]cc1C21CCCN(c2ccncc2)CC1 (stereo not shown)")
"> 5 µM"
>>> value_observed("CCC1(c2cccc(-c3ccncc3F)c2)C2=C(CC(C)(C)NC2=O)Nc2n[nH]c(F)c21 (stereo not shown)")
"≤ 0.1 µM"
>>> value_observed("CCC1(c2cccc(N3CCCC3)c2)C2=C(CC(C)(C)CC2=O)Nc2n[nH]c(C)c21 (stereo not shown)")
"≤ 0.1 µM"
>>> value_observed("CC[C@]1(c2cccc(-c3c(C)nn(C)c3C)c2)C2=C(CC(C)(C)CC2=O)Nc2n[nH]c(C)c21")
"≤ 0.1 µM"
>>> value_observed("CC1(C)CC(=O)C2=C(C1)Nc1n[nH]cc1C21CCCN(c2ccncn2)CC1 (stereo not shown)")
"1 to 5 µM"
>>> value_observed("CC1(C)CC(=O)C2=C(C1)Nc1n[nH]cc1C21CN(c2ccncn2)C1")
"1 to 5 µM"
>>> value_observed("CCC1(c2cccc(-c3ccncc3)c2)C2=C(CC(C)(C)CC2=O)Nc2n[nH]c(C(F)(F)F)c21 (stereo not shown)")
"0.1 to 1 µM"

IC50 reported for this compound CCC1(c2cccc(N(C)c3ccc(C)nc3)c2)C2=C(CC(C)(C)CC2=O)Nc2n[nH]cc21 (stereo not shown) : 0.1 to 1 µM

IC50 reported for this compound `CC[C@]1(c2cccc(-c3cnn4c3CC(C)(C)CC4)c2)C2=C(CC(C)(C)NC2=O)Nc2n[nH]cc21` : 0.1 to 1 µM

IC50 reported for this compound `CC1(C)CC(=O)C2=C(C1)Nc1n[nH]cc1[C@@]21CCCc2ccccc21` : > 5 µM

IC50 reported for this compound `C[C@H]1CC(=O)C2=C(C1)Nc1n[nH]cc1C21CCOCC1` : 0.1 to 1 µM

IC50 reported for this compound CCC1(c2cccc(C3CCC3)c2)C2=C(CC(C)(C)CC2=O)Nc2n[nH]cc21 (stereo not shown) : > 5 µM

IC50 reported for this compound CCC1(c2cccc(C3CCOC(C)(C)C3)c2)C2=C(CC(C)(C)CC2=O)Nc2n[nH]cc21 (stereo not shown) [Compound 912089] : 0.1 to 1 µM

IC50 reported for this compound CC1(C)CC(=O)C2=C(C1)Nc1n[nH]cc1C2(C)CCc1ccccc1 (stereo not shown) : > 5 µM

IC50 reported for this compound `CC[C@]1(c2cccc(-c3cnn4ccncc34)c2)C2=C(CC(C)(C)NC2=O)Nc2n[nH]cc21` : 0.1 to 1 µM

====

target: GSK3b (GST-full length GSK3b) (Homo sapiens (Human)); test: GSK3b TR-FRET kinase assay; format: biochemical; details: 1 nM GSK3b, 2 μM ATP, 30 minute preincubation; geometric mean; read-out: GSK3-B TR-FRET BIOCHEMICAL (TR-FRET); GMean; IC50
As shown below, each of these compounds has a reported IC50 value.

IC50 reported for this compound CC1(C)CC(=O)C2=C(C1)Nc1n[nH]cc1C2(C)c1cc(Cl)ccc1Cl (centres unmarked) : > 5 µM

====

molecular target: GSK3b (GST-full length GSK3b) (Homo sapiens (Human)); test: GSK3b TR-FRET kinase assay; format: biochemical; settings: 1 nM GSK3b, 2 μM ATP, 30 minute preincubation, Table 16; read-out: GSK3-B TR-FRET BIOCHEMICAL (TR-FRET); IC50
pIC50: −log10 of the molar value.
METRIC: pIC50

pIC50 reported for this molecule CC[C@@]1(c2cccc(Oc3ncccn3)c2)C2=C(CC(C)(C)NC2=O)Nc2n[nH]c(Cl)c21 [Compound 951605] : < 5.30

pIC50 reported for this molecule CCC1(c2cccc(N(C)c3ccnc(C(F)(F)F)c3)c2)C2=C(CC(C)(C)CC2=O)Nc2n[nH]cc21 (stereo not shown) [Compound 913254] : ≥ 7.00

pIC50 reported for this molecule CCC1(c2cccc(-c3ccnc(C)c3)c2)C2=C(CC(C)(C)CC2=O)Nc2n[nH]c(C(F)(F)F)c21 (stereo not shown) [Compound 917289] : 5.30 to 6.00

pIC50 reported for this molecule CN1CCC2(CC1)C1=C(CC(C)(C)CC1=O)Nc1n[nH]cc12 [Compound 826714] : < 5.30

pIC50 reported for this molecule CC[C@@]1(c2cccc(-c3cc(C)nnc3C)c2)C2=C(CC(C)(C)NC2=O)Nc2n[nH]cc21 [Compound 949334] : < 5.30

pIC50 reported for this molecule CC1(C)CC(=O)C2=C(C1)Nc1n[nH]cc1C21CCN(S(=O)(=O)C2CCCCC2)CC1 [Compound 913128] : ≥ 7.00

pIC50 reported for this molecule CC[C@@]1(c2cccc(-c3ccnc(C(F)F)c3)c2)C2=C(CC(C)(C)NC2=O)Nc2n[nH]cc21 [Compound 949388] : < 5.30

====

target: UniProtKB P49840; assay: GSK3α TR-FRET kinase assay; type: biochemical; settings: 1 nM GSK3α, 4 μM ATP, 30 minute preincubation; read-out: GSK3-A TR-FRET BIOCHEMICAL (TR-FRET); IC50
Sequence (P49840 whole entry): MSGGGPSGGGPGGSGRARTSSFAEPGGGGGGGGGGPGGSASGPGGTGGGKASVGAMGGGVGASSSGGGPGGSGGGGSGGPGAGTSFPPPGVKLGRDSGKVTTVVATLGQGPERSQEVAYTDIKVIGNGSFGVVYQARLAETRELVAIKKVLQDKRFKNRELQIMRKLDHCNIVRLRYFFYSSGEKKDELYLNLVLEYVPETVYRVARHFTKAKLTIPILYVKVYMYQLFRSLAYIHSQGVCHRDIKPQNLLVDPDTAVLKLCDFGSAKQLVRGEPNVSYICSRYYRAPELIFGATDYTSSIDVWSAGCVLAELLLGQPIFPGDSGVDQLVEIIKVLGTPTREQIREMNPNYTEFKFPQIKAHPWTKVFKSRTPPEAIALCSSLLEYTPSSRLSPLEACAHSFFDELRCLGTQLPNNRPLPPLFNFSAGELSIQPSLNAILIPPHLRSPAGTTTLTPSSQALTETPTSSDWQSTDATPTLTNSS
As shown below, each of these molecules has a reported IC50 value.

IC50 reported for this molecule CC1CCC(C(=O)N2CC3(C2)CC2(CO3)C3=C(CC(C)(C)CC3=O)Nc3n[nH]cc32)C1 (stereo not drawn) : ≤ 100 nM

IC50 reported for this molecule `CC1(C)CC(=O)C2=C(C1)Nc1n[nH]cc1[C@@]21COC2(CCC2)C1` : 100 to 1000 nM

IC50 reported for this molecule CCC1(c2ccccc2)C2=C(CS(=O)(=O)CC2=O)Nc2n[nH]cc21 (stereo not drawn) : > 5000 nM
